- PROCEDURE DETAILS: Average particle diameter of the liposomes in each preparation (Zetasizer Nano ZS)
- Format: physicochemical
- CONDITION NOTES: liposome preparation of Example 118: compound/PEG-DMPE/DSPC/cholesterol with apo-b siRNA
VALUE TYPE: Particle diameter of Preparetion (nm)
Answer in nm, number only, no unit symbol.

Previously resolved entries follow.
[
  {
    "MOLECULE": "CCCCC/C=C\\C/C=C\\CCCCCCCC(=O)OC1CN(CC(O)CO)C[C@H]1OC(=O)CCCCCCC/C=C\\C/C=C\\CCCCC (stereo partly shown) [Compound 53]",
    "SCALE UNIT": "nm",
    "Particle diameter of Preparetion": 152.4
  },
  {
    "MOLECULE": "CCCCC/C=C\\C/C=C\\CCCCCCCCOC1CN(CCCN(C)C)C[C@H]1OCCCCCCCC/C=C\\C/C=C\\CCCCC (stereo partly shown) [Compound 59]",
    "SCALE UNIT": "nm",
    "Particle diameter of Preparetion": 116.7
  },
  {
    "MOLECULE": "CCCCC/C=C\\C/C=C\\CCCCCCCCCCOCC1CN(C(=O)[C@@H](N)CCCCN)C[C@H]1COCCCCCCCCCC/C=C\\C/C=C\\CCCCC (stereo partly shown) [Compound 115]",
    "SCALE UNIT": "nm",
    "Particle diameter of Preparetion": 152.8
  },
  {
    "MOLECULE": "CCCCC/C=C\\C/C=C\\CCCCCCCCOC1CN(CC(O)COC)C[C@H]1OCCCCCCCC/C=C\\C/C=C\\CCCCC (stereo partly shown) [Compound 55]",
    "SCALE UNIT": "nm",
    "Particle diameter of Preparetion": 139.6
  },
  {
    "MOLECULE": "CCCCC/C=C\\C/C=C\\CCCCCCCCO[C@H]1CN(C)C[C@@H]1OCCCCCCCC/C=C\\C/C=C\\CCCCC [Compound 50]",
    "SCALE UNIT": "nm",
    "Particle diameter of Preparetion": 129.2
  }
]

Q: May I ask what Particle diameter of Preparetion has been recorded for CCCCC/C=C\C/C=C\CCCCCCCCOC1CN(CCC(=O)N(C)C)C[C@H]1OCCCCCCCC/C=C\C/C=C\CCCCC (stereo partly shown) [Compound 58] ?
A: 151.8

Q: Please give the measured Particle diameter of Preparetion for this molecule: CCCCC/C=C\C/C=C\CCCCCCCC(=O)OC1CN(C(=O)[C@@H](N)CCCCN)C[C@H]1OC(=O)CCCCCCC/C=C\C/C=C\CCCCC (stereo partly shown) [Compound 66]
A: 137.4

Q: Sample CCCCC/C=C\C/C=C\CCCCCCCCO[C@@H]1CN(CC(C)O)C[C@H]1OCCCCCCCC/C=C\C/C=C\CCCCC (mixture of isomers) [Compound 54] — what was its Particle diameter of Preparetion?
A: 148.9

Q: Suppose we examine the molecule CCCCC/C=C\C/C=C\CCCCCCCCO[C@H]1CNC[C@@H]1OCCCCCCCC/C=C\C/C=C\CCCCC [Compound 43] ; what Particle diameter of Preparetion value has been reported?
A: 150.0

Q: Sample CCCCC/C=C\C/C=C\CCCCCCCC(=O)OC1CN(C(=O)CN)C[C@H]1OC(=O)CCCCCCC/C=C\C/C=C\CCCCC (stereo partly shown) [Compound 65] — what was its Particle diameter of Preparetion?
A: 128.9
